Target: ULK2 (human) (UniProt Q8IYT8)
Sequence (Q8IYT8 whole entry, looked up): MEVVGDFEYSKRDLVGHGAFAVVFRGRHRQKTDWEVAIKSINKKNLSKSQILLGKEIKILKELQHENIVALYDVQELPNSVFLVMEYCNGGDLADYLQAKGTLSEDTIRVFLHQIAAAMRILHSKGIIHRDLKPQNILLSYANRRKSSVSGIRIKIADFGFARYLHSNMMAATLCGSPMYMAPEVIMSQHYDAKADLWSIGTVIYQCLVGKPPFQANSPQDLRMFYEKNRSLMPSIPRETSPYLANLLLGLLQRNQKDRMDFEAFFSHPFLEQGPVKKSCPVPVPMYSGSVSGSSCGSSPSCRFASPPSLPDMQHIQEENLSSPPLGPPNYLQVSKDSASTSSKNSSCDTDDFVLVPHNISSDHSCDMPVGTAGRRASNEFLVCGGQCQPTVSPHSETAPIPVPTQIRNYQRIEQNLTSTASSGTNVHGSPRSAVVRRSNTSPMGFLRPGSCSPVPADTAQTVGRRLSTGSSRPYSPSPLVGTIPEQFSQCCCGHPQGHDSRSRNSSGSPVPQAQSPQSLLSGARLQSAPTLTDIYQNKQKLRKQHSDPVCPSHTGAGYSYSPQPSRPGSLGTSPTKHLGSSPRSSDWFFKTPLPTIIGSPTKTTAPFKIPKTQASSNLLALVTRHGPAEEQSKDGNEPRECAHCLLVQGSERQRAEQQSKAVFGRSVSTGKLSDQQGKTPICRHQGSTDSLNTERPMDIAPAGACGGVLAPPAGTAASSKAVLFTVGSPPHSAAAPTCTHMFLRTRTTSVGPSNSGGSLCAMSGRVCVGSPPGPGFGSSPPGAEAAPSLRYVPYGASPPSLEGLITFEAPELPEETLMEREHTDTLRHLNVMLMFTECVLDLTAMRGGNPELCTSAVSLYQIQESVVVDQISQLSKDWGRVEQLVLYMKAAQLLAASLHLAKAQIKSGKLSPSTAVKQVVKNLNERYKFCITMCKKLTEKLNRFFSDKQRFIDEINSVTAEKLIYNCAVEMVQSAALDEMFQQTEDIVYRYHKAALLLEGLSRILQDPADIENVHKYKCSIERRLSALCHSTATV
Experiment: radiometric filter-binding kinase assay, Kinase HotSpot
Details: compound 0.5 µM; ATP 10 µM
observation_type: residual activity (%)

INSERT INTO assay_data (smiles_text, experimental_target, units_of_measure, measurement) VALUES
  ('Cc1cccc(-c2nc(C(C)(C)C)[nH]c2-c2ccc3c(c2)OCO3)n1', 'ULK2 (human) (UniProt Q8IYT8)', '%', 75.4),
  ('COc1ccc(C(=O)Nc2sc3c(c2C(N)=O)CCCC3)cc1OC', 'ULK2 (human) (UniProt Q8IYT8)', '%', 105),
  ('O=C(c1cc2cc(O)ccc2[nH]1)c1cc2cc(O)ccc2[nH]1', 'ULK2 (human) (UniProt Q8IYT8)', '%', 94.5),
  ('CS(=O)(=O)CCNCc1ccc(-c2ccc3ncnc(Nc4ccc(OCc5cccc(F)c5)c(Cl)c4)c3c2)o1', 'ULK2 (human) (UniProt Q8IYT8)', '%', 104),
  ('Fc1ccc(-c2nc3n(c2-c2ccncc2)CCS3)cc1', 'ULK2 (human) (UniProt Q8IYT8)', '%', 106);

---

Tested on: MKNK1 (human), Q9BUB5 [T385D; 165-205 del]
Sequence (Q9BUB5 whole entry, looked up, stated change not applied): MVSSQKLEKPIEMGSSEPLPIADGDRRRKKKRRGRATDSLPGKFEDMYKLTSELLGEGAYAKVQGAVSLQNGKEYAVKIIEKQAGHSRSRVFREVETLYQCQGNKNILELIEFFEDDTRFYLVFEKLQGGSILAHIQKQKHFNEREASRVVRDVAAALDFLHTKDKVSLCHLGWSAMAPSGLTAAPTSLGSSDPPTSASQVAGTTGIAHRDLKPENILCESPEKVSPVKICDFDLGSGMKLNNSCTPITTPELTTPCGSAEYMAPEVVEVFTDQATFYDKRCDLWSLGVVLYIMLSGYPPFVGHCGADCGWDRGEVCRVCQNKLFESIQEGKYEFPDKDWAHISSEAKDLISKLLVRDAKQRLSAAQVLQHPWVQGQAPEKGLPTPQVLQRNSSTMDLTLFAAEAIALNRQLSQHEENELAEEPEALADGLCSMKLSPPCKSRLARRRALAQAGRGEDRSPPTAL
Test: radiometric filter-binding kinase assay, Kinase HotSpot
Conditions: compound 0.5 µM; ATP 10 µM
Each entry gets label 0 if its residual activity stays under 90%, and label 1 if its residual activity is 90% or above.

INSERT INTO results (smiles_text, assigned_category) VALUES
  ('Nc1ccc2ncnc(NCCc3ccc(Oc4ccccc4)cc3)c2c1', 'label 1'),
  ('CN([C@@H](Cc1ccc(OS(=O)(=O)c2cccc3cnccc23)cc1)C(=O)N1CCN(c2ccccc2)CC1)S(=O)(=O)c1cccc2cnccc12', 'label 1'),
  ('O=c1cc(N2CCOCC2)oc2c(-c3ccccc3)cccc12', 'label 1'),
  ('N#CCCc1ccc2c(c1)-c1[nH]c3ccc([N+](=O)[O-])cc3c1CC(=O)N2', 'label 0'),
  ('COc1ccc2c(c1)c(C1=C(c3c[nH]c4ccccc34)C(=O)NC1=O)cn2CCCN(C)C', 'label 1'),
  ('COc1ccc(S(=O)(=O)N(CCO)c2ccccc2CN(C)C/C=C/c2ccc(Cl)cc2)cc1', 'label 1'),
  ('O=C1Cc2c([nH]c3ccc([N+](=O)[O-])cc23)-c2ccccc2N1', 'label 0'),
  ('CCN(CC)CCNC(=O)c1c(C)[nH]c(/C=C2\C(=O)Nc3ccc(F)cc32)c1C', 'label 1'),
  ('COc1cccc(-c2cc(=O)c3ccccc3o2)c1N', 'label 1');

---

Listing of recorded residual activity by entry.
Target: TYK2 JH1 catalytic (human) (UniProt P29597)
Sequence (P29597 whole entry, looked up): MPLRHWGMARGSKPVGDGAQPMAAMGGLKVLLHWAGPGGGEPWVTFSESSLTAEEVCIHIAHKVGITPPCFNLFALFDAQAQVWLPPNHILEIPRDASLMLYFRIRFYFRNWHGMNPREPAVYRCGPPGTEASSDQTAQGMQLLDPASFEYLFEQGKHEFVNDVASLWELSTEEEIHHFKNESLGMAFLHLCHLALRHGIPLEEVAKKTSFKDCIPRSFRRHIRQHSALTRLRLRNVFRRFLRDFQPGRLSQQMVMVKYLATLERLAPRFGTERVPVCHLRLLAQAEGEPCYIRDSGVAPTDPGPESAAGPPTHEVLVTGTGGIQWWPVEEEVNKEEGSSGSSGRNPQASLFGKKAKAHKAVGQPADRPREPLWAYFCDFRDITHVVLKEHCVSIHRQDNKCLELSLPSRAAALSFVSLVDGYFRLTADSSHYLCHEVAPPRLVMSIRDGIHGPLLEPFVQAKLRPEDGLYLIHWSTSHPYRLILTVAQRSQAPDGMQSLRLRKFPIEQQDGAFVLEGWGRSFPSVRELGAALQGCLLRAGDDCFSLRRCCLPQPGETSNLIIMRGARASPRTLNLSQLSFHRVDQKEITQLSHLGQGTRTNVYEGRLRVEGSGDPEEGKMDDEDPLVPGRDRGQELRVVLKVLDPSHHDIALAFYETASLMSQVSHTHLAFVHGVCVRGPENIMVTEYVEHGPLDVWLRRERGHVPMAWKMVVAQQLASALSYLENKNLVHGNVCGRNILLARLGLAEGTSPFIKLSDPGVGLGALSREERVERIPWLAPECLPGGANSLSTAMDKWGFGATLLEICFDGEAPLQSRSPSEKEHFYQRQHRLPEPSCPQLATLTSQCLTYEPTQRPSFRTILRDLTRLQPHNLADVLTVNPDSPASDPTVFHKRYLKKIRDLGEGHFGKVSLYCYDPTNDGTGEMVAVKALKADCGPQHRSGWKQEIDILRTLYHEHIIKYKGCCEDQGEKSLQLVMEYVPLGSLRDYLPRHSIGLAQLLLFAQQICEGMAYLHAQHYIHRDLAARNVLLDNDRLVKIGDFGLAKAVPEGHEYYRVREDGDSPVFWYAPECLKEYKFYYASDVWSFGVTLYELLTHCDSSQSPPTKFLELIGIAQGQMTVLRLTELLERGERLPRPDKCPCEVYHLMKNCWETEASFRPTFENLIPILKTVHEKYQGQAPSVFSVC
Assay: radiometric filter-binding kinase assay, Kinase HotSpot
Conditions: compound 0.5 µM; ATP 10 µM
observation_type: residual activity (%)

INSERT INTO results (smiles_text, measurement) VALUES
  ('C[C@@H]1CCN(C(=O)CC#N)C[C@@H]1N(C)c1ncnc2[nH]ccc12', 12),
  ('O=C1Nc2ccc(Br)cc2/C1=C\c1cc2c([nH]1)CCCC2', 86),
  ('Cc1cncc2cccc(S(=O)(=O)N3CCCN(C(=O)CN)C[C@H]3C)c12', 86.6),
  ('COc1ccc(Cl)cc1NC(=O)Nc1cc(C)nc2ccccc12', 99.7),
  ('CN(C)CCCn1cc(C2=C(c3c[nH]c4ccccc34)C(=O)NC2=O)c2ccccc21', 79.3),
  ('NC(=O)c1cccc(-c2cc(Nc3ccc(OC(F)(F)F)cc3)ncn2)c1', 82.7),
  ('CS(=O)(=O)CCNCc1ccc(-c2ccc3ncnc(Nc4ccc(OCc5cccc(F)c5)c(Cl)c4)c3c2)o1', 95.5),
  ('c1ccc2c(-c3ccncc3)c[nH]c2c1', 101),
  ('COc1ccc2c(c1)/C(=C/c1cnc[nH]1)C(O)=N2', 45),
  ('Fc1ccc(-c2nc3n(c2-c2ccncc2)CCS3)cc1', 107),
  ('O=C(c1cc2cc(O)ccc2[nH]1)c1cc2cc(O)ccc2[nH]1', 66.7);
